biological target: human CLDN18.2 (human); assay: cell-based or functional assay
measured-attribute: CDC EC50, U2OS-CLDN18.2 target cells (nM)
Write the number in nM without appending the unit.

INSERT INTO measurements (binder, measured_attribute, recorded_number) VALUES
  ('chimeric antibody xi22F12 (antibody, human IgG1, kappa, V domains shown, Mouse variable regions on human IgG1/kappa; defucosylated, expressed in FUT8-knockout CHO-S cells; also called chimeric 22F12) VH: QVQLKESGPGLVAPSQSLSITCTVSGFSLTSYGVYWVRQPPGKGLEWLGVIWAGGSTNYNSALMSRLSINKDNSKSQVFLKMNSLQTDDTAMYYCARDRGRLLSMDYWGQGTSVTVSS VL: DIVMTQSPSSLSVSAGEKVTMSCRSSQSLLNSGNQKNYLAWYQQKPGQPPKLLIYGASTRESGVPDRFTGSGSGTDFTLTIGSVQAEDLAVYYCQNVHFFPFTFGSGTKLEIKR', 'CDC EC50, U2OS-CLDN18.2 target cells', 2.09);

Now for the binder whose CDC EC50, U2OS-CLDN18.2 target cells we want.
Fill in the blank: the reported CDC EC50, U2OS-CLDN18.2 target cells of IMAB362 (antibody, human IgG1, kappa, V domains shown, Positive control, prepared in-house; also called Claudiximab; TMAB362 [sic]) VH: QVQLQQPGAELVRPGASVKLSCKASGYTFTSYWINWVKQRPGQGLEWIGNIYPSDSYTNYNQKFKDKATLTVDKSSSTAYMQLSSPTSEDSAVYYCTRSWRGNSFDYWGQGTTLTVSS VL: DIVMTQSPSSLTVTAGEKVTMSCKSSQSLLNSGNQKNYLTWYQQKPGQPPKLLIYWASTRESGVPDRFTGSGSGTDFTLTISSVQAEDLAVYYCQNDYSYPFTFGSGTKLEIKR is ____. 9.79

Data origin, for the record: patent US20240409629A1
